Test system: HL-60(TB) leukemia
test.name: NCI tumour cell line growth inhibition, 48 h
Record form. Attribute: TGI. Fill in for each entry.

Note to self: TGI recorded for O=C1CC(=O)c2c(O)cc(O)c(c2O)-c2c(ccc(O)c2O)C2=CC(=O)c3c(O)cc(O)c(c3O2)-c2c1ccc(O)c2O (tested in a mixture with another compound) was > 50 µM

Note to self: TGI recorded for CC1(C)[C@@H](Cn2cnc3c(N)ncnc32)CC[C@@]1(C)CO was > 100 µM

Note to self: TGI recorded for O=C(Nc1cccc(C(F)(F)F)c1)O/N=C(/Cl)CCl was 38.7 µM

Could you now look at the following compound, please?
Note to self: TGI recorded for CCOC(=O)Oc1cc2c(c(OC)c1OC)-c1ccc(SC)c(=O)cc1C(NC(=O)C(F)(F)F)CC2 (centres undefined) was 0.0148 µM
